# study system: bFFA2 (Bos taurus)
# Sequence (A0ACM8QIU6 1-329): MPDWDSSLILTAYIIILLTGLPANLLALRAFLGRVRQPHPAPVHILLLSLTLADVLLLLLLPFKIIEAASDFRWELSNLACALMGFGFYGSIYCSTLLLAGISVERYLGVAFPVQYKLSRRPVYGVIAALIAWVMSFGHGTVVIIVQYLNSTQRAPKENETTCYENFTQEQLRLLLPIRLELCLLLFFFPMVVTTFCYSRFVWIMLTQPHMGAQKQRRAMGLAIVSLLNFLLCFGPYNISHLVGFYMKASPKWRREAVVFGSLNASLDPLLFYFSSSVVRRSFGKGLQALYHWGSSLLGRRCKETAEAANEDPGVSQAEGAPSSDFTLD
# method notes: beta-arrestin-2 BRET recruitment
pEC50: −log10 of the molar value.
The threshold is inclusive: pEC50 of exactly 4 counts as criterion met; values below receive criterion not met.

In [3]: df
Out[3]:
                                    compound         class_name
 0                           O=C(O)C1=CCCCC1      criterion met
 1                      CC(=CC(=O)O)C(F)(F)F      criterion met
 2                              C=CC=CC(=O)O      criterion met
 3                                  CCC(=O)O  criterion not met
 4                             CCCCCCCC(=O)O  criterion not met
 5                              CCCCCCC(=O)O  criterion not met
 6                                      O=CO  criterion not met
 7  CC/C=C/C(=O)O [compound 22, trans-2-pentenoic acid]      criterion met
 8  CCC/C=C/C(=O)O [compound 23, trans-2-hexenoic acid]      criterion met
 9                          C/C=C/C=C/C(=O)O      criterion met
10                                   CC(=O)O  criterion not met
11                               CCCCCC(=O)O      criterion met
12                                CCCCC(=O)O      criterion met
13  O=C(O)/C=C/c1ccccc1 [compound 28, trans-cinnamic acid]  criterion not met
14                                 CCCC(=O)O      criterion met
15                            CCCCCCCCC(=O)O  criterion not met
16                            O=C(O)C1=CCCC1      criterion met

###

# study system: bFFA3 (Bos taurus, UniProt A0ACM8QIV1)
# Sequence (A0ACM8QIV1 1-326): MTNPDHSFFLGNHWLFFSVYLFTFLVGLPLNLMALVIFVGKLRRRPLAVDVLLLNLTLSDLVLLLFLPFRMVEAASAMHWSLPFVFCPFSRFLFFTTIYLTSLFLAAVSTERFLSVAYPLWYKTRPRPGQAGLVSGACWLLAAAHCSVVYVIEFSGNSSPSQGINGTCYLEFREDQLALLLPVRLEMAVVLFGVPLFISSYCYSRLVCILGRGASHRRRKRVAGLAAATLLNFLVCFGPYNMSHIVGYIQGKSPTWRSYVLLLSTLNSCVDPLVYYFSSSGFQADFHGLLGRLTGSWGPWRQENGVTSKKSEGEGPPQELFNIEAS
# method notes: […]GTPγS incorporation, membranes
Lab note: compare EC50 with 200 µM, writing MET if less and NOT MET if equal or more.

In [3]: df
Out[3]:
   smiles_structure                            study_system  class_name
0    CCCCCCCCC(=O)O  bFFA3 (Bos taurus, UniProt A0ACM8QIV1)     NOT MET
1         CCCC(=O)O  bFFA3 (Bos taurus, UniProt A0ACM8QIV1)     NOT MET
2     CCCCCCCC(=O)O  bFFA3 (Bos taurus, UniProt A0ACM8QIV1)     NOT MET
3          CCC(=O)O  bFFA3 (Bos taurus, UniProt A0ACM8QIV1)         MET
4      CCCCCCC(=O)O  bFFA3 (Bos taurus, UniProt A0ACM8QIV1)         MET
5           CC(=O)O  bFFA3 (Bos taurus, UniProt A0ACM8QIV1)     NOT MET
6       CCCCCC(=O)O  bFFA3 (Bos taurus, UniProt A0ACM8QIV1)         MET
7        CCCCC(=O)O  bFFA3 (Bos taurus, UniProt A0ACM8QIV1)         MET
8              O=CO  bFFA3 (Bos taurus, UniProt A0ACM8QIV1)     NOT MET
